# experimentalSystem: Farnesyl diphosphate synthase (Toxoplasma gondii)
# assayNotes: Inhibition of Toxoplasma gondii FPPS
property: IC50 (nM)
Note: unit nM is implicit; provide only the numeric part.

The examples below pair each entry with its known result.
Exercise: Give measured IC50 for "CC(C)CNCC(P(=O)(O)O)P(=O)(O)O" (Farnesyl diphosphate synthase (Toxoplasma gondii)).
Key: 181

Exercise: Give measured IC50 for "CCCCCNCC(P(=O)(O)O)P(=O)(O)O" (Farnesyl diphosphate synthase (Toxoplasma gondii)).
Key: 80

Exercise: Give measured IC50 for "CCCCCCCNCC(P(=O)(O)O)P(=O)(O)O" (Farnesyl diphosphate synthase (Toxoplasma gondii)).
Key: 95

Exercise: Give measured IC50 for "CCCCCCNCC(P(=O)(O)O)P(=O)(O)O" (Farnesyl diphosphate synthase (Toxoplasma gondii)).
Key: 137

Exercise: Give measured IC50 for "CCCNCC(P(=O)(O)O)P(=O)(O)O" (Farnesyl diphosphate synthase (Toxoplasma gondii)).
Key: 298

Exercise: Give measured IC50 for CCC(C)NCC(P(=O)(O)O)P(=O)(O)O (configuration not stated) (Farnesyl diphosphate synthase (Toxoplasma gondii)).
Key: 112

// switching to the query compound
Exercise: Give measured IC50 for "CCCCNCC(P(=O)(O)O)P(=O)(O)O" (Farnesyl diphosphate synthase (Toxoplasma gondii)).
Key: 206

* * *

# experimentalSystem: Farnesyl diphosphate synthase (Trypanosoma cruzi)
# Sequence (Q8WS26 whole entry): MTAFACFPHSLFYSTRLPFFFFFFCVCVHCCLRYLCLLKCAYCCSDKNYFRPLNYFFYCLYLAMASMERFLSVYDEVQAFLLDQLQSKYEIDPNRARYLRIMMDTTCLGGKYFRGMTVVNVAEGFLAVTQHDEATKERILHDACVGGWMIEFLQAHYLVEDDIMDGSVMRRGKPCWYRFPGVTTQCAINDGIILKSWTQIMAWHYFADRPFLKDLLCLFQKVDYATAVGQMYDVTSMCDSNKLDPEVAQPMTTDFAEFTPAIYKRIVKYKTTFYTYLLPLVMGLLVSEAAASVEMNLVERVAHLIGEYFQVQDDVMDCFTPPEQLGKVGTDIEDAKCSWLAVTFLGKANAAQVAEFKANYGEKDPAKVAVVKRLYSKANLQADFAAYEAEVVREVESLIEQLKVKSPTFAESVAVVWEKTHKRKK
Overview of recorded pIC50 for various compounds
Field pIC50 (float): negative decimal logarithm of the concentration in molar.

The examples below pair each entry with its known result.
Exercise: Indicate its recorded pIC50; the compound in question is "CCCCCCCNCC(P(=O)(O)O)P(=O)(O)O"
Key: 7.24

Exercise: Indicate its recorded pIC50; the compound in question is "O=P(O)(O)C(CNC1CCCCC1)P(=O)(O)O"
Key: 7.89

Exercise: Indicate its recorded pIC50; the compound in question is "O=P(O)(O)C(CNN1CCCCC1)P(=O)(O)O"
Key: 6.54

Exercise: Indicate its recorded pIC50; the compound in question is "CCCCCCCCNCC(P(=O)(O)O)P(=O)(O)O"
Key: 5.99

Exercise: Indicate its recorded pIC50; the compound in question is "CCCNCC(P(=O)(O)O)P(=O)(O)O"
Key: 7.42

// switching to the query compound
Exercise: Indicate its recorded pIC50; the compound in question is "CC(C)CNCC(P(=O)(O)O)P(=O)(O)O"
Key: 6.29

* * *

Overview of recorded IC50 for various compounds
# experimentalSystem: Farnesyl diphosphate synthase (Toxoplasma gondii, UniProt Q197X6)
# Sequence (Q197X6 whole entry): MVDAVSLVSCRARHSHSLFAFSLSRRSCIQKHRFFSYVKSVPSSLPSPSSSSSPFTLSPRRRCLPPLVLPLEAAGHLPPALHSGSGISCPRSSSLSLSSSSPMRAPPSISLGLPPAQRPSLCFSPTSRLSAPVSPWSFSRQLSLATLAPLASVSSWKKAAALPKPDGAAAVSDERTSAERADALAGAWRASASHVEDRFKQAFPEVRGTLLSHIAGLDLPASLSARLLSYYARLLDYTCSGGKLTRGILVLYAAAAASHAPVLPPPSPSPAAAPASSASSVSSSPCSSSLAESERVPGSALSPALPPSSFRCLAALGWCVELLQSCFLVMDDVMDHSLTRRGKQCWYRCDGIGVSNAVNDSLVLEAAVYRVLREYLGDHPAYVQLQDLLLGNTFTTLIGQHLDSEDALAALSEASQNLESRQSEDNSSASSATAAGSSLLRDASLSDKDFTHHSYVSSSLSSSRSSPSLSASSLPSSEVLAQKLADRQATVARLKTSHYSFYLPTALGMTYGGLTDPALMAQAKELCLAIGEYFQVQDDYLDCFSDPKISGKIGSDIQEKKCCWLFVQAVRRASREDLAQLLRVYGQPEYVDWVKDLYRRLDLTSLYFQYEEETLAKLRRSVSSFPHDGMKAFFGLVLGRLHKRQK
# assayNotes: Inhibition of Toxoplasma gondii FPPS
Note: unit nM is implicit; provide only the numeric part.

The examples below pair each entry with its known result.
Exercise: Indicate its recorded IC50; the compound in question is "CCCCCCCCNCC(P(=O)(O)O)P(=O)(O)O"
Key: 87

Exercise: Indicate its recorded IC50; the compound in question is "O=P(O)(O)C(CNC1CCCCC1)P(=O)(O)O"
Key: 337

Exercise: Indicate its recorded IC50; the compound in question is "CC(C)NCC(P(=O)(O)O)P(=O)(O)O"
Key: 253

Exercise: Indicate its recorded IC50; the compound in question is "O=P(O)(O)C(CNN1CCCCC1)P(=O)(O)O"
Key: 165

Exercise: Indicate its recorded IC50; the compound in question is "CC(C)(C)NCC(P(=O)(O)O)P(=O)(O)O"
Key: 286

Next:
Exercise: Indicate its recorded IC50; the compound in question is "O=P(O)(O)C(CNN1CCCC1)P(=O)(O)O"
Key: 361

Exercise: Indicate its recorded IC50; the compound in question is "CC(C)CCNCC(P(=O)(O)O)P(=O)(O)O"
Key: 275

* * *

# experimentalSystem: Farnesyl diphosphate synthase (Trypanosoma cruzi)
# Sequence (Q8WS26 whole entry): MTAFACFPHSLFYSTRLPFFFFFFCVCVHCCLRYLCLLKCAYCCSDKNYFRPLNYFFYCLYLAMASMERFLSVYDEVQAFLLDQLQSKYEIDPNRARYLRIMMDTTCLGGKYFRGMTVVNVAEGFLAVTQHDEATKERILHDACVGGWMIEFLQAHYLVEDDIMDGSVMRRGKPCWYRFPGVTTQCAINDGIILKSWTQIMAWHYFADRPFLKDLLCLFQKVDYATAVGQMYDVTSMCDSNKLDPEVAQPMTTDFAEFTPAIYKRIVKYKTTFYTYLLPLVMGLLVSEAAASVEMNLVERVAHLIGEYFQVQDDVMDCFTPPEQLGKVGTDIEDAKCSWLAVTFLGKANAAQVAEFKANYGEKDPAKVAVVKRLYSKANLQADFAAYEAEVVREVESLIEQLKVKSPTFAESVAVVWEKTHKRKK
property: IC50 (nM)
Note: unit nM is implicit; provide only the numeric part.

The examples below pair each entry with its known result.
Exercise: Indicate its recorded IC50; the compound in question is "CC(C)(C)NCC(P(=O)(O)O)P(=O)(O)O"
Key: 1210

Exercise: Indicate its recorded IC50; the compound in question is CCC(C)NCC(P(=O)(O)O)P(=O)(O)O (centres undefined)
Key: 944

Exercise: Indicate its recorded IC50; the compound in question is "CCCCCCNCC(P(=O)(O)O)P(=O)(O)O"
Key: 490

Next:
Exercise: Indicate its recorded IC50; the compound in question is "CC(C)NCC(P(=O)(O)O)P(=O)(O)O"
Key: 1400
